# inhibition at 10 µM per entry
- SYSTEM NAME: VR1/TRPV1 receptor (Homo sapiens, UniProt Q8NER1)
- Sequence (Q8NER1 whole entry): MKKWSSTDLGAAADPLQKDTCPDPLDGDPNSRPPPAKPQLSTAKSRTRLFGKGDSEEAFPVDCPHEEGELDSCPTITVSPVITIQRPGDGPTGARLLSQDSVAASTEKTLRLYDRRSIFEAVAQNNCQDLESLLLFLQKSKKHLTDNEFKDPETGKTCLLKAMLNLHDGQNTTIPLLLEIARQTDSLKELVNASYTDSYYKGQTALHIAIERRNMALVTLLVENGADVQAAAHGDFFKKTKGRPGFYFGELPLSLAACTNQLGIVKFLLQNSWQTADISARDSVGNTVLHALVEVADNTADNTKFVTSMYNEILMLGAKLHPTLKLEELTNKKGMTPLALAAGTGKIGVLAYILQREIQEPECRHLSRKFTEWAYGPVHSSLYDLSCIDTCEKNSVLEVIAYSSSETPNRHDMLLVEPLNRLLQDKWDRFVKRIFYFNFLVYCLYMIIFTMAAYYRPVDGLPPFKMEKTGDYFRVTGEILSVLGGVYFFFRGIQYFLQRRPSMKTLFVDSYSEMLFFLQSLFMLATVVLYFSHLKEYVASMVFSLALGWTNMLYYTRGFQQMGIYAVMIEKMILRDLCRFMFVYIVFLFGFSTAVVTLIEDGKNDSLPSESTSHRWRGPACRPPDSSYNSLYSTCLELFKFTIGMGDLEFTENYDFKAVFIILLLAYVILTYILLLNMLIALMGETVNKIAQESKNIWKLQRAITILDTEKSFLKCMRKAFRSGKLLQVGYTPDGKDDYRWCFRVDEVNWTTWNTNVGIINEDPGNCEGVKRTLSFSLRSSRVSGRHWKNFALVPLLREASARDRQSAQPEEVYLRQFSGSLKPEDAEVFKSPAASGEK
- MEASUREMENT NOTES: IC50 (human) after pH stimulus
- Format: cell-based
- CONDITION SET: @ 10 μM; read-out: inhibition in percent, IC50 (human) after pH stimulus
Report as a plain number; the unit % is understood.

Consider the reported inhibition at 10 µM for these molecules:
CCCN(CCC)c1nc(C(F)(F)F)ccc1CNC(=O)C(C)c1ccc(NS(C)(=O)=O)c(C)c1 (stereo not drawn) [Example 331] = 31
CC(C(=O)NCc1ccc(C(F)(F)F)nc1N1CCC(CN(C)C)(c2ccccc2)CC1)c1ccc(NS(C)(=O)=O)c(F)c1 (stereo not drawn) [Example 259] = 47
CC(C(=O)NCc1ccc(C(F)(F)F)nc1N1CCN(c2ccncc2)CC1)c1ccc(NS(C)(=O)=O)c(F)c1 (stereo not drawn) [Example 176] = 43

Which inhibition at 10 µM is reported for this molecule? CCCCC(CCCC)Oc1nc(C(F)(F)F)ccc1CNC(=O)C(C)c1ccc(NS(C)(=O)=O)c(F)c1 (stereo not drawn) [Example 352] 61

Then this molecule: CCCCCCOc1nc(C(C)(C)C)ccc1CNC(=O)C(C)c1ccc(NS(C)(=O)=O)c(F)c1 (stereo not drawn) [Example 236] 69

Next: CCCCCc1nc(C(F)(F)F)ccc1CNC(=O)[C@H](C)c1ccc(NS(C)(=O)=O)c(F)c1 [Example 145] 49

Quick one: CC(C)CC(CC(C)C)Oc1nc(C(F)(F)F)ccc1CNC(=O)C(C)c1ccc(NS(C)(=O)=O)c(F)c1 (stereo not drawn) [Example 337] 30

Check Cc1cc(C(F)(F)F)nc(N2CCC(C)CC2)c1CNC(=O)C(C)c1ccc(NS(C)(=O)=O)c(F)c1 (stereo not drawn) [Example 318] too. 32

Consider next the molecule CC(C(=O)NCc1ccc(C(F)(F)F)nc1N1CCN(c2ncccc2C(F)(F)F)CC1)c1ccc(NS(C)(=O)=O)c(F)c1 (stereo not drawn) [Example 213] in the same way. 49

Item: CC(C(=O)NCc1ccc(C(F)(F)F)cc1N)c1ccc(NS(C)(=O)=O)c(F)c1 (stereo not drawn) [Example 61] 47

And for CC(C(=O)NCc1ccc(C(F)(F)F)nc1N1CCN(C2CCCCC2)CC1)c1ccc(NS(C)(=O)=O)c(F)c1 (stereo not drawn) [Example 260] ? 66

Can you check CC(C(=O)NCc1ccc(C(F)(F)F)nc1N1CCC(=O)CC1)c1ccc(NS(C)(=O)=O)c(F)c1 (stereo not drawn) [Example 227] next? 51

What about CC1CCCN(c2nc(C(F)(F)F)ccc2CNC(=O)C(C)c2ccc(NS(C)(=O)=O)c(F)c2)C1 (stereo not drawn) [Example 282] ? 62

One more molecule: CC(C(=O)NCc1ccc(C(F)(F)F)nc1N1CCC(N2CCCC2)CC1)c1ccc(NS(C)(=O)=O)c(F)c1 (stereo not drawn) [Example 165] 28

Try this molecule too: CC(C(=O)NCc1ccc(C(F)(F)F)nc1N1CCCCC1C)c1ccc(NS(C)(=O)=O)c(F)c1 (stereo not drawn) [Example 283] 51

----------
pIC50 values for the compounds below.
- SYSTEM NAME: VR1/TRPV1 receptor (Homo sapiens, UniProt Q8NER1)
- MEASUREMENT NOTES: IC50 (human) after pH stimulus
- Type: cell-based
- CONDITION SET: table 4
Reminder that pIC50 means the negative base-10 logarithm of the concentration expressed in mol/L.

Solved entries:
C/C=C\COc1nc(C(F)(F)F)ccc1CNC(=O)C(C)c1ccc(NS(C)(=O)=O)c(F)c1 (centres unmarked) [Example 298] = 6.74
CC(C)COc1nc(C(F)(F)Cl)ccc1CNC(=O)C(C)c1ccc(NS(C)(=O)=O)c(F)c1 (centres unmarked) [Example 208] = 7.41
CC(C(=O)NCc1ccc(C(F)(F)F)nc1-c1ccccc1F)c1ccc(NS(C)(=O)=O)c(F)c1 (centres unmarked) [Example 150] = 5.88
CC(C(=O)NCc1ccc(C(F)(F)F)nc1N1CCN(c2ccccn2)CC1)c1ccc(NS(C)(=O)=O)c(F)c1 (centres unmarked) [Example 214] = 6.97
CC(C(=O)NCc1ccc(C(F)(F)F)nc1OCc1ccc(Cl)cc1)c1ccc(NS(C)(=O)=O)c(F)c1 (centres unmarked) [Example 258] = 6.88

Look up pIC50: Cc1cc(-c2nc(C(F)(F)F)ccc2CNC(=O)C(C)c2ccc(NS(C)(=O)=O)c(F)c2)ccc1F (centres unmarked) [Example 278] 7.12

Would you kindly repeat that for CC(C(=O)NCc1ccc(C(F)(F)F)nc1N(C)C)c1ccc(NS(C)(=O)=O)c(F)c1 (centres unmarked) [Example 85] ? 5.62

Can you handle CCCCc1ccc(COc2nc(C(F)(F)F)ccc2CNC(=O)C(C)c2ccc(NS(C)(=O)=O)c(F)c2)cc1 (centres unmarked) [Example 243] next? 6.47

----------
- SYSTEM NAME: VR1/TRPV1 receptor (Homo sapiens, UniProt Q8NER1)
- MEASUREMENT NOTES: IC50 (human) after pH stimulus
- Assay type: cell-based
- CONDITION SET: @ 0.1 μM; read-out: inhibition in percent, IC50 (human) after pH stimulus
Known inhibition at 0.1 µM of a selection of compounds
Answer in %, number only, no unit symbol.

CCCCCCOc1nc(C(C)(C)C)ccc1CNC(=O)C(C)c1ccc(NS(C)(=O)=O)c(F)c1 (stereo not shown) [Compound 236] = 2
CC(C(=O)NCc1ccc(C(F)(F)F)nc1N1CCCCC1C)c1ccc(NS(C)(=O)=O)c(F)c1 (stereo not shown) [Compound 283] = 43
CCCN(CCC)c1nc(C(F)(F)F)ccc1CNC(=O)C(C)c1ccc(NS(C)(=O)=O)c(C)c1 (stereo not shown) [Compound 331] = 18
CC(C(=O)NCc1ccc(C(F)(F)F)nc1N1CCC(CN(C)C)(c2ccccc2)CC1)c1ccc(NS(C)(=O)=O)c(F)c1 (stereo not shown) [Compound 259] = 0
CC(C(=O)NCc1ccc(C(F)(F)F)nc1N1CCN(C2CCCCC2)CC1)c1ccc(NS(C)(=O)=O)c(F)c1 (stereo not shown) [Compound 260] = 8.5

Would you kindly share the measured inhibition at 0.1 µM for CCCC(CCC)Oc1nc(C(F)(F)F)ccc1CNC(=O)C(C)c1ccc(NS(C)(=O)=O)c(F)c1 (stereo not shown) [Example 336] ? 35

Item: Cc1cccc(N2CCN(c3cc(C(F)(F)F)ccc3CNC(=O)C(C)c3ccc(NS(C)(=O)=O)c(F)c3)CC2)c1 (stereo not shown) [Example 247] 36

----------
- SYSTEM NAME: vanilloid receptor (VR1) (Homo sapiens)
- Construct: expressed in transfected cells; host or cells: CHO K1 cells (ECACC), stably transfected
- Sequence (Q8NER1 whole entry): as above
- MEASUREMENT NOTES: FLIPR Ca2+ influx assay on CHO K1 cells transfected with the VR1 gene (pharmacological method II)
- Format: cell-based
- CONDITION SET: table 4; capsaicin; read-out: Ki (human) Cap.
METRIC NAME: Ki (nM)
All answers are understood in nM, so give the number only.

Consider the reported Ki for these compounds:
CCOc1nc(C(C)(C)C)ccc1CNC(=O)C(C)c1ccc(NS(C)(=O)=O)c(F)c1 (stereo not shown) = 14.8
CC(C(=O)NCc1ccc(C(F)(F)F)nc1OCc1ccc(C(C)(C)C)cc1)c1ccc(NS(C)(=O)=O)c(F)c1 (stereo not shown) = 2.1
Cc1ccc(N2CCN(c3nc(C(F)(F)F)ccc3CNC(=O)C(C)c3ccc(NS(C)(=O)=O)c(F)c3)CC2)cc1 (stereo not shown) = 3.3

What Ki value was documented for this compound, CC(C)COc1cc(C(F)(F)F)ccc1CNC(=O)C(C)c1ccc(NS(C)(=O)=O)c(F)c1 (stereo not shown) ? 1.5

----------
- SYSTEM NAME: VR1/TRPV1 receptor (Homo sapiens, UniProt Q8NER1)
- MEASUREMENT NOTES: IC50 (human) after pH stimulus
- Type: cell-based
- CONDITION SET: @ 1 μM; ne = no effect
METRIC NAME: inhibition in percent, IC50 (human) after pH stimulus

Cc1cc(C(F)(F)F)nc(OC2CCCC2)c1CNC(=O)C(C)c1ccc(NS(C)(=O)=O)c(F)c1 (stereo not drawn) [Example 349] = ne @ 1 μM
CCC(CC)Oc1nc(C(F)(F)F)ccc1CNC(=O)C(C)c1ccc(NS(C)(=O)=O)c(F)c1 (stereo not drawn) [Example 335] = ne @ 1 μM
CC(C(=O)NCc1ccc(C(F)(F)F)nc1N1CCN(c2ncccc2C(F)(F)F)CC1)c1ccc(NS(C)(=O)=O)c(F)c1 (stereo not drawn) [Example 213] = 37%

----------
- SYSTEM NAME: VR1/TRPV1 receptor (Homo sapiens, UniProt Q8NER1)
- MEASUREMENT NOTES: IC50 (human) after pH stimulus
- Assay type: cell-based
- CONDITION SET: table 4
pIC50 for assorted molecules
The quantity pIC50 is defined as the negative base-10 logarithm of the molar concentration.

CC(C(=O)NCc1ccc(C(F)(F)F)cc1N1CCC(Cc2ccccc2)CC1)c1ccc(NS(C)(=O)=O)c(F)c1 (centres unmarked) = 7.42
CC(C(=O)NCc1ccc(C(F)(F)F)cc1-c1ccc(F)c(Cl)c1)c1ccc(NS(C)(=O)=O)c(F)c1 (centres unmarked) = 7.48
CC(C(=O)NCc1ccc(C(F)(F)F)nc1-c1cccs1)c1ccc(NS(C)(=O)=O)c(F)c1 (centres unmarked) = 7.24
Cc1cc(C(C)C(=O)NCc2ccc(C(F)(F)F)nc2N2CCCCC2)ccc1NS(C)(=O)=O (centres unmarked) = 7.81

For VR1/TRPV1 receptor (Homo sapiens, UniProt Q8NER1), provide pIC50 of CC(=O)C1(c2ccccc2)CCN(c2nc(C(F)(F)F)ccc2CNC(=O)C(C)c2ccc(NS(C)(=O)=O)c(F)c2)CC1 (centres unmarked) please. 7.45

Then this molecule: CC(C(=O)NCc1ccc(C(F)(F)F)nc1OC1CCC(C)(C)CC1)c1ccc(NS(C)(=O)=O)c(F)c1 (centres unmarked) 6.85

// same read-out, input: CC(C(=O)NCc1ccc(C(F)(F)F)nc1OCc1ccncc1)c1ccc(NS(C)(=O)=O)c(F)c1 (centres unmarked) 5.89

Note, next up: CC(C(=O)NCc1ccc(C(F)(F)F)nc1N1CCN(c2ccc(F)cc2)CC1)c1ccc(NS(C)(=O)=O)c(F)c1 (centres unmarked) 7.64

COCCCOc1nc(C(F)(F)F)ccc1CNC(=O)C(C)c1ccc(NS(C)(=O)=O)c(F)c1 (centres unmarked) , same question. 5.66

And the next one, CC(C(=O)NCc1ccc(C(F)(F)F)nc1OC1CCN(C(=O)OC(C)(C)C)CC1)c1ccc(NS(C)(=O)=O)c(F)c1 (centres unmarked) ? 6.53

// repeat for CC(C(=O)NCc1ccc(C(F)(F)F)nc1NCc1ccccc1)c1ccc(NS(C)(=O)=O)c(F)c1 (centres unmarked) and report 6.69
